These entries and their values trace back to patent US11964978B2.

- target-or-test-system: R232-STING (Homo sapiens (Human), UniProt Q86WV6, H232R)
- Sequence (Q86WV6 155-341 H232R): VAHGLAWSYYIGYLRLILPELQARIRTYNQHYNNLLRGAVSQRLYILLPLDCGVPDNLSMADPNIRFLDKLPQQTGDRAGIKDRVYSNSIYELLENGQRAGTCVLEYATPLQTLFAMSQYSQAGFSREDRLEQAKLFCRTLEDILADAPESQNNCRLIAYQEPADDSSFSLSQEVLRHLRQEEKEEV
- assay-context: read-out: R232-STING SPA-IC50 Ki; STING residues 155-341, 100 nM 3H-cGAMP; KI from IC50 with Cheng-Prusoff equation
pKi: −log10 of the molar value.
parameter-measured: pKi

These recorded examples may help you get a feel for the data.
Cc1cc(-c2cn(C)c(-c3nc(C(N)=O)cc4c3cnn4C)n2)n(CC(F)(F)F)n1 [AIF06]    7.74
CCn1nc(C)cc1-c1cn(CCOC)c(-c2nc(C(N)=O)cc3c2cnn3C)n1 [AIP04]    7.45
CCCn1nccc1-c1cn(C)c(-c2nc(C(N)=O)cc3c2cnn3C)n1 [AIH03]    6.83

I. COCCCn1nc(C)c(O)c1-c1cn(C)c(-c2nc(C(N)=O)cc3c2cnn3C)n1 [AIF10]
II. Cc1cc(-c2cn(C)c(-c3nc(C(N)=O)cc4c3cnn4C)n2)n(CC#N)n1 [Example AIP01]
Query: Param metric = pKi; output whichever of I , II has the minimum value. Response format: the label of the selected entry.
Result: II

1. CCn1nc(C)cc1-c1cn(CC(F)F)c(-c2nc(C(N)=O)cc3c2cnn3C)n1 [AIA04]
2. CCn1nc(C)cc1-c1cn(C2CC2)c(-c2nc(C(N)=O)cc3c2cnn3C)n1 [Example AIB01]
3. Cc1cc(-c2cn(C)c(-c3nc(C(N)=O)cc4c3cnn4C)n2)n(CCCCCO)n1 [AIE03]
4. CCn1cc(-c2cc(C)nn2CC)nc1-c1nc(C(N)=O)cc2c1cnn2C [AIA02]
Query: Which order do these items take when sorted by rising pKi? List them. List the labels, following the order given in the request.
Result: 2, 1, 4, 3

a. Cc1cc(-c2cn(C)c(-c3nc(C(N)=O)cc4c3cnn4C)n2)n(CCC#N)n1 [Example AIQ01]
b. COCCCn1nc(C)cc1-c1cn(C)c(-c2nc(C(N)=O)cc3c2cnn3C(F)F)n1 [AIN02]
Query: Hi, I'm comparing a with b and wondering which one has the bigger number for pKi. Any idea? // caller expects the label of the chosen entry
Result: b

I. Cc1cc(-c2cn(C)c(-c3nc(C(N)=O)cc4c3cnn4C)n2)n(CCCCO)n1 [AIE04]
II. Cc1cc(-c2cn(C)c(-c3nc(C(N)=O)cc4c3cnn4C)n2)n(CC2CC2)n1 [AIF04]
Query: Lab notebook, comparison: I versus II , higher pKi goes to which? Reply with the label of the item you choose.
Result: I
(I: 7.86, II: 7.63)

A. CCCn1nc(C)cc1-c1cn(C)c(-c2nc(C(N)=O)cc3c2cnn3C)n1 [Example AIF01]
B. CCn1nc(C)cc1-c1cn(C)c(-c2nc(C(N)=O)nc3c2cnn3C)n1 [Example AIG01]
Query: Which of the two items, A and B , has the greater recorded pKi? Your choice should be expressed through its label.
Result: A

a. CCn1nc(C)cc1-c1cn(C)c(-c2nc(C(N)=O)cc3c2cnn3C)n1 [Example AIA01]
b. COCCCn1nc(C)cc1-c1cn(C)c(-c2nc(C(N)=O)cc3c2cnn3C)n1 [AIF03]
Query: Dear colleague, could you let me know whether a or b has the lower recorded pKi? Thanks. Give the label under which the chosen entry appears.
Result: a
(a: 7.97, b: 8.24)
